# System: CDK4-cyclinD3;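 note: KINOMEscan kinase panel screen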
# Assay context: concentration: 1 μM,replicates: in singlicate; n = 1
Readout kind: %Inh (%)

compound=CS(=O)(=O)c1cccc(CNc2nc(Nc3ccc4c(c3)[C@@H]3C[C@@H]4CNC3=O)ncc2C(F)(F)F)c1 recorded_measurement=96.4
compound=Cl.Nc1n[nH]c2cc(-c3ccccn3)ccc12 recorded_measurement=0
compound=Nc1nccc(-c2ccc3c(N)n[nH]c3c2)n1 recorded_measurement=0
compound=CCOC(=O)N1CCC(n2cnc(-c3ccc(F)cc3)c2-c2ccnc(N)n2)CC1 recorded_measurement=6
compound=O=C(Nc1ccc(Oc2ccc3nc(NC(=O)C4CC4)cn3n2)c(F)c1)c1cccn(-c2ccccc2)c1=O recorded_measurement=0
compound=COc1cc2ncn(-c3cc(OCC4CCCCC4)c(C(N)=O)s3)c2cc1OC recorded_measurement=0
compound="COc1ccc(Nc2nccc(N3CCC(NC(=O)c4cccc(C#N)c4)C3)n2)cc1 (stereo not shown)" recorded_measurement=0
compound=C[C@@H](Oc1cc(-n2cnc3ccc(-c4ccncc4)cc32)sc1C(N)=O)c1ccccc1Cl recorded_measurement=0
compound=C[C@@H]1CNc2c(sc3ccc4nc(-c5ccncc5)ccc4c23)C(=O)N1 recorded_measurement=2
compound=Cn1ccc2ncnc(Oc3ccc(NC(=O)Nc4cc(C(C)(C)C)on4)c(Cl)c3)c21 recorded_measurement=2
compound=CC(C)S(=O)(=O)N1CCN(Cc2ccc3c(c2)nc(NC(=O)c2ccsc2)n3C[C@H](O)c2ccccc2)CC1 recorded_measurement=0
compound=Cn1ccc2ncnc(Oc3ccc(NC(=O)Nc4ccnc(C(F)(F)F)c4)c(Cl)c3)c21 recorded_measurement=0
compound=O=C1NCCc2[nH]c(-c3ccncc3)cc21 recorded_measurement=36
compound=Cn1cc(-c2cccc3c(N)c(C(N)=O)nnc23)cn1 recorded_measurement=7
compound=O=c1[nH]cc(-c2ccc(O)cc2)c2sc(-c3ccncc3)cc12 recorded_measurement=0
compound=CSc1nccc(-c2c(-c3ccc(F)cc3)ncn2CCCN2CCOCC2)n1.Cl recorded_measurement=0
compound=COC(=O)c1cccc(NC(=O)NC2CCN(c3ccnc(NCc4ccc(F)cc4)n3)CC2)c1 recorded_measurement=0
compound=NC(=O)Nc1sc(-c2ccc(F)cc2)cc1C(N)=O recorded_measurement=0
compound=Cc1n[nH]c2cc(Nc3ccnc(Nc4cccc(CN5CCOCC5)c4)n3)ccc12 recorded_measurement=0
compound=COc1cccc(C2=C(Nc3cccc(Cl)c3)C(=O)NC2=O)c1 recorded_measurement=14
compound=Cn1ccc2ncnc(Oc3ccc(NC(=O)Nc4cncc(C(F)(F)F)c4)c(Cl)c3)c21 recorded_measurement=0
compound=CNC(=O)c1ccccc1Nc1nc(Nc2cccc(CS(C)(=O)=O)c2)ncc1C.O=CO recorded_measurement=19
compound=CS(=O)(=O)Nc1ccc(-c2ccnc3[nH]ccc23)cc1 recorded_measurement=0
compound="COC(=O)c1cccc(NC(=O)NC2CCN(c3ccnc(Nc4cc(OC)c(OC)c(OC)c4)n3)C2)c1 (stereo not shown)" recorded_measurement=0
compound=Cc1ccn2nc(-c3ccc(F)cc3)c(-c3ccncc3)c2c1.Cl recorded_measurement=0
compound=NC(=O)c1ccc(-c2cc3ncnc(SCC(=O)O)c3s2)cc1 recorded_measurement=0
compound=CN1CCN(CCCNc2nccc(-c3c(-c4ccc(F)cc4)nn4cc(C(N)=O)ccc34)n2)CC1 recorded_measurement=0
compound=O=C(NOCC1CC1)c1cc(Br)c(F)c(F)c1Nc1ccc(I)cc1Cl recorded_measurement=17
